system: glyphosate resistant Conyza canadensis (L.) (ERICA), horseweed; assay: Postemergence herbicide evaluation, growth of Conyza canadensis (ERICA); assay type: in vivo; conditions: Erigeron canadensis, post-emergence, 168 h, 560 g ae/ha, 7 DAA; read-out: Ave. ERICA, percent reduction in plant size relative to the untreated control
REPORTED_PROPERTY: pest or weed control at 560 g/ha (%)
Answer in %, number only, no unit symbol.

O=C(COc1ccc(Cl)cc1Cl)O/N=C/c1ccccc1
73

Data request: Value lookup for pest or weed control at 560 g/ha; key = COc1ccc(/C=N/OC(=O)COc2ccc(Cl)cc2Cl)cc1
Data returned: 82.5

Data request: Value lookup for pest or weed control at 560 g/ha; key = O=C(COc1ccc(Cl)cc1Cl)O/N=C/c1ccncc1
Data returned: 80

Data request: Value lookup for pest or weed control at 560 g/ha; key = O=C(COc1ccc(Cl)cc1Cl)Oc1ncc(Cl)cn1
Data returned: 80

Data request: Value lookup for pest or weed control at 560 g/ha; key = C[N+](C)(C)CCOC(=O)COc1ccc(Cl)cc1Cl.[Cl-]
Data returned: 78

Data request: Value lookup for pest or weed control at 560 g/ha; key = C/C(=N\OC(=O)COc1ccc(Cl)cc1Cl)c1ccncc1
Data returned: 82.5

Data request: Value lookup for pest or weed control at 560 g/ha; key = N/C(=N\OC(=O)COc1ccc(Cl)cc1Cl)c1ccco1
Data returned: 73

Data request: Value lookup for pest or weed control at 560 g/ha; key = CC(C)ONC(=O)COc1ccc(Cl)cc1Cl
Data returned: 77.5

Data request: Value lookup for pest or weed control at 560 g/ha; key = O=C(COc1ccc(Cl)cc1Cl)O/N=C/c1ccccn1
Data returned: 75

Data request: Value lookup for pest or weed control at 560 g/ha; key = O=C(COc1ccc(Cl)cc1Cl)Oc1cncnc1
Data returned: 85
